Molecular target: glucokinase (GK), residues 12-465 of the human enzyme (Homo sapiens)
Construct: I.D. No. 1 corresponds to residues 12-465 of glucokinase; made in house; host or cells: E. coli DH10b-Tlr
Sequence (P35557 with tags, fused parts or gaps isoform P35557-2): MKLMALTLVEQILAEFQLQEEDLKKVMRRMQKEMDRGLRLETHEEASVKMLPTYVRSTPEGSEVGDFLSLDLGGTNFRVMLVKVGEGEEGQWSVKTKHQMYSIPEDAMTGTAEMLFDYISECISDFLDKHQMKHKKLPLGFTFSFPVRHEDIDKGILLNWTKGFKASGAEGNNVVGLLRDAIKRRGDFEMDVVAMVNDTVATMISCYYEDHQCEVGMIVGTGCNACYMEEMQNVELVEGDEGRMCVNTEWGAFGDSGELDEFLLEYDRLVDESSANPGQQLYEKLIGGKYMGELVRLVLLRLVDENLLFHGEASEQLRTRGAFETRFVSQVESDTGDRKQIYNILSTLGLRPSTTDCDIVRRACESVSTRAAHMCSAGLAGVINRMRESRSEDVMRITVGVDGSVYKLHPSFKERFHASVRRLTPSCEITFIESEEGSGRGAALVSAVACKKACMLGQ
Assay: Enzymatic glucokinase activity assay (KinaseGlo luminescence, ATP consumption)
Format: biochemical
Conditions: GK activation; 5 μM ATP, 5 mM Glucose; Kact = concentration giving 50% of the maximal increase in GK activity; read-out: pKact
pEC50: −log10 of the molar value.
The reader will find reported pEC50 values listed item by item below.

Answered examples (5):
O=C(Nc1nccs1)[C@H](CC1CCCCC1)N1CCN(S(=O)(=O)c2cc3ccccc3s2)CC1=O = ≥ 6.20
O=C(Nc1nccs1)[C@H](CC1CCCCC1)N1CCN(S(=O)(=O)c2cccc([N+](=O)[O-])c2)CC1=O = 5.60 to 5.80
COc1ccc(CCNC(=O)N2CCN([C@@H](CC3CCCCC3)C(=O)Nc3nccs3)C(=O)C2)cc1OC = ≤ 5.50
Cc1ccc(S(=O)(=O)N2CCN([C@@H](CC3CCCCC3)C(=O)Nc3nccs3)C(=O)C2)cc1F = ≥ 6.20
Cc1cc(S(=O)(=O)N2CCN([C@@H](CC3CCCCC3)C(=O)Nc3nccs3)C(=O)C2)c(C)o1 = ≥ 6.20

Task item: Give recorded pEC50 with glucokinase (GK), residues 12-465 of the human enzyme (Homo sapiens) for the following molecule: CC(C)C[C@@H](C(=O)Nc1ncc(F)s1)N1CCN(S(=O)(=O)C2CC2)CC1=O
Reply: 5.90 to 6.10

Task item: Give recorded pEC50 with glucokinase (GK), residues 12-465 of the human enzyme (Homo sapiens) for the following molecule: COc1ccc(S(=O)(=O)N2CCN([C@@H](CC3CCCCC3)C(=O)Nc3nccs3)C(=O)C2)cc1OC
Reply: ≤ 5.50

====

The reader will find reported Emax values listed item by item below.
Biological target: glucokinase (GK), residues 12-465 of the human enzyme (Homo sapiens)
Construct: I.D. No. 1 corresponds to residues 12-465 of glucokinase; made in house; host or cells: E. coli DH10b-Tlr
Assay: Enzymatic glucokinase activity assay (KinaseGlo luminescence, ATP consumption)
Format: biochemical
Conditions: calculated maximal gain in GK enzyme activity at a saturating concentration of the compound; 5 μM ATP, 5 mM Glucose; read-out: % ACTmax

Answered examples (3):
COc1ccc2nc(NC(=O)C(CC3CCOCC3)N3CCN(S(=O)(=O)C4CC4)CC3=O)sc2n1 (stereo not shown) [Example 26] = 74.1 to 97%
COc1cccc(S(=O)(=O)N2CCN([C@@H](CC3CCCCC3)C(=O)Nc3nccs3)C(=O)C2)c1 [Example 92] = ≥ 119%
O=C(Nc1nccs1)[C@H](CC1CCCCC1)N1CCN(S(=O)(=O)c2cccc3nsnc23)CC1=O [Example 171] = 97.1 to 107%

Please look at the following molecule next.
Task item: Requested read-out: Emax. Entry: CC(=O)c1ccc(S(=O)(=O)N2CCN([C@@H](CC3CCCCC3)C(=O)Nc3nccs3)C(=O)C2)cc1 [Example 206]
Reply: 74.1 to 97%

====

The reader will find reported Emax values listed item by item below.
Target: glucokinase (GK), residues 12-465 of the human enzyme (Homo sapiens)
Construct: I.D. No. 1 corresponds to residues 12-465 of glucokinase; made in house; host or cells: E. coli DH10b-Tlr
Experiment: Enzymatic glucokinase activity assay (KinaseGlo luminescence, ATP consumption)
Type: biochemical
Settings: calculated maximal gain in GK enzyme activity at a saturating concentration of the compound; 5 μM ATP, 5 mM Glucose; read-out: % ACTmax
Description: The activity of compounds as glucokinase activators may be assayed in vitro, in vivo or in a cell line. Provided below is an enzymatic glucokinase activity assay. Purified glucokinase may be obtained as follows. […] Recombinant protein may be isolated from cellular extracts by passage over Sepharose Q Fast Flow resin (Pharmacia). […] The purity of GK may be determined on denaturing SDS-PAGE gel. […]

Answered examples (5):
O=C(Nc1nccs1)[C@H](CC1CCCCC1)N1CCN(S(=O)(=O)C2CCCC2)CC1=O = ≥ 119%
CCn1cc(S(=O)(=O)N2CCN([C@@H](CC3CCCCC3)C(=O)Nc3nccs3)C(=O)C2)cn1 = ≥ 119%
O=C(Nc1ncc(F)s1)C(CC1CCOCC1)N1CCN(S(=O)(=O)c2cccc(F)c2)CC1=O (centres unmarked) = 108 to 119%
O=C(Nc1nccs1)[C@H](CC1CCCCC1)N1CCN(S(=O)(=O)Cc2ccc(Cl)c(Cl)c2)CC1=O = ≤ 74%
O=C(Nc1ncc(Cl)s1)C(CC1CCCC1)N1CCN(S(=O)(=O)C2CC2)CC1=O (centres unmarked) = ≥ 119%

Task item: Requested read-out: Emax. Entry: O=C(Nc1nccs1)[C@H](CC1CCCCC1)N1CCN(C(=S)NCc2ccco2)CC1=O
Reply: 97.1 to 107%

Task item: Requested read-out: Emax. Entry: COc1cc(C)c(S(=O)(=O)N2CCN([C@@H](CC3CCCCC3)C(=O)Nc3nccs3)C(=O)C2)c(C)c1C
Reply: ≤ 74%

Task item: Requested read-out: Emax. Entry: O=C(Nc1nccs1)[C@H](CC1CCCCC1)N1CCN(S(=O)(=O)c2cc3ccccc3o2)CC1=O
Reply: 74.1 to 97%
